Study System: Protein disulfide-isomerase A6 (Homo sapiens) (UniProt Q15084)
Sequence (Q15084 whole entry, looked up): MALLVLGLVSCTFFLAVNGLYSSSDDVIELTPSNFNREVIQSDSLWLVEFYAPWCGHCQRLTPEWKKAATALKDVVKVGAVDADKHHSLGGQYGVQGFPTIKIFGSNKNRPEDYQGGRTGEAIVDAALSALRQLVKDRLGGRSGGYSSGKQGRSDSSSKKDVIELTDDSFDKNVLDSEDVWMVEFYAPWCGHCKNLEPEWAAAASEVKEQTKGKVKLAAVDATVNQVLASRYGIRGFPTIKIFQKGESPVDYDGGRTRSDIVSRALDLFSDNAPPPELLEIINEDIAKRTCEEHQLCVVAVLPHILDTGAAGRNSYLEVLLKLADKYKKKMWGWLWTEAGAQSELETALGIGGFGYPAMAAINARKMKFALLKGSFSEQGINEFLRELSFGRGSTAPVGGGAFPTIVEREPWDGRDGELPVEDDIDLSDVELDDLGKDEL
Assay Protocol: inhibitors of ERp5-driven insulin aggregation, primary screen, biochemical, turbidity, absorbance 650 nm, single point (AID 651711)
Assay Context: 90 min, at 9.99 µM
Hit rate of the full screen: of about 350,000 compounds, about 180 (0.051%) were called active.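 How the source made its calls: active means mean replicate inhibition above about 25%, with every replicate also reaching it (limit read from the data, passing the limit was not always enough); inconclusive means only one of those two criteria met; inactive means neither criterion met.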 What follows is part of a selection rich in actives, with near analogues and random picks from the rest.
Reply using exactly one outcome from 1 = active, -1 = inactive

Input: Call for entry C[C@@H](NC(=O)C[C@@H]1C=C[C@@H](NC(=O)CN2CCOCC2)[C@H](CO)O1)c1ccccc1 :
Output: -1

Input: Call for entry COCCNC(=O)C[C@@H]1CC[C@H]2[C@H](COc3ccc(NS(=O)(=O)c4ccc(Cl)cc4)cc3C(=O)N2C)O1 :
Output: -1

Input: Call for entry COCC(=O)Nc1ccc2c(c1)C(=O)N(C)[C@@H]1CC[C@H](CC(=O)NCC3CC3)O[C@@H]1CO2 :
Output: -1

Input: Call for entry CO[C@@H]1CN(C)C(=O)c2cc(NS(=O)(=O)CC(F)(F)F)ccc2OC[C@H](C)N(C)C[C@H]1C :
Output: -1

Input: Call for entry CCC(=O)N1C[C@@H](O)COC[C@H]2O[C@H](CC(=O)NCC3CCCCC3)CC[C@@H]21 :
Output: -1

Input: Call for entry CCC(=O)N(C)C[C@@H]1Oc2cc(C#CC(C)(C)O)ccc2S(=O)(=O)N([C@@H](C)CO)C[C@@H]1C :
Output: -1

Input: Call for entry COc1ccc(CN(C)C[C@H]2Oc3c(NC(=O)C4CCCCC4)cccc3C(=O)N([C@@H](C)CO)C[C@H]2C)cc1 :
Output: -1

Input: Call for entry COc1ccc(NC(=O)N(C)C[C@@H]2Oc3ccc(NS(=O)(=O)c4ccc(OC)cc4)cc3CC(=O)N([C@H](C)CO)C[C@H]2C)cc1 :
Output: -1

Input: Call for entry C[C@@H]1CN([C@H](C)CO)C(=O)Cc2cc(NC(=O)Nc3cccc4ccccc34)ccc2O[C@@H]1CN(C)Cc1ccc(C(F)(F)F)cc1 :
Output: 1

Input: Call for entry O=C(N[C@@H]1C=C[C@@H](CC(=O)N2CCOCC2)O[C@H]1CO)c1ccccn1 :
Output: -1

Input: Call for entry CC(=O)Nc1ccc2c(c1)C(=O)N(C)[C@H]1CC[C@@H](CC(=O)NCC3CC3)O[C@H]1CO2 :
Output: 1

Input: Call for entry C[C@@H]1CN([C@H](C)CO)C(=O)Cc2cc(NC(=O)CCN3CCOCC3)ccc2O[C@H]1CN(C)CC1CC1 :
Output: -1

Input: Call for entry C/C=C/c1ccc([C@H]2[C@@H](CO)N(C(=O)C3CC3)[C@@H]2CNC(=O)NC(C)C)cc1 :
Output: -1

Input: Call for entry C[C@@H]1CN([C@@H](C)CO)C(=O)Cc2cc(NC(=O)CCN3CCOCC3)ccc2O[C@@H]1CN(C)C(=O)Nc1cccc2ccccc12 :
Output: -1

Input: Call for entry O=C(N[C@@H]1CC[C@H](CCn2cc(-c3ccccc3)nn2)O[C@H]1CO)c1cnccn1 :
Output: -1

Input: Call for entry COc1ccc(S(=O)(=O)Nc2ccc3c(c2)C(=O)N([C@@H](C)CO)C[C@H](C)[C@H](CN(C)Cc2ccc(C(=O)O)cc2)O3)cc1 :
Output: -1

Input: Call for entry Cc1nc(NC(=O)C(C)(C)C)sc1[N+](=O)[O-] :
Output: -1

Input: Call for entry CC(C)NC(=O)N1[C@H](CNC(=O)CN(C)C)[C@@H](c2ccccc2)[C@@H]1CO :
Output: -1

Input: Call for entry CCN1C(=O)N[C@@H]2C[C@H](C(=O)N3CCCC3)[C@H](C)[C@H](c3ccccc3)C[C@@H]21 :
Output: -1

Input: Call for entry CO[C@H](CN(C)C(=O)c1ccc2c(c1)OCO2)[C@H](C)CN([C@@H](C)CO)S(=O)(=O)c1ccc(Cl)cc1 :
Output: -1
